- system name: rat α3β4 nAChRs (Rattus norvegicus, UniProt P04757+P12392)
- Sequence (P04757 26-499): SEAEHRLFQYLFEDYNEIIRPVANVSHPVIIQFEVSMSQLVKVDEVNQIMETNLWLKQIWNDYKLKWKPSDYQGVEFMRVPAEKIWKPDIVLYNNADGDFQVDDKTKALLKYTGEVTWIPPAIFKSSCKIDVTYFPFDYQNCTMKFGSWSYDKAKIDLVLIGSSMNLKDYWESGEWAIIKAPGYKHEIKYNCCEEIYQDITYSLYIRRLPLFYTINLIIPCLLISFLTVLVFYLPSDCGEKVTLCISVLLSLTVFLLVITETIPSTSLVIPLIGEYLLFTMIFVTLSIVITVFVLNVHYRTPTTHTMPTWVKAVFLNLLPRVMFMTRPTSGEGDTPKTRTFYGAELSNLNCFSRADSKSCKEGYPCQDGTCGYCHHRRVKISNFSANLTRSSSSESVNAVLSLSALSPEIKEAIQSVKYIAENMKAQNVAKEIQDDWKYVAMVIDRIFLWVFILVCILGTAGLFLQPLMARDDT
- Sequence (P12392 21-495): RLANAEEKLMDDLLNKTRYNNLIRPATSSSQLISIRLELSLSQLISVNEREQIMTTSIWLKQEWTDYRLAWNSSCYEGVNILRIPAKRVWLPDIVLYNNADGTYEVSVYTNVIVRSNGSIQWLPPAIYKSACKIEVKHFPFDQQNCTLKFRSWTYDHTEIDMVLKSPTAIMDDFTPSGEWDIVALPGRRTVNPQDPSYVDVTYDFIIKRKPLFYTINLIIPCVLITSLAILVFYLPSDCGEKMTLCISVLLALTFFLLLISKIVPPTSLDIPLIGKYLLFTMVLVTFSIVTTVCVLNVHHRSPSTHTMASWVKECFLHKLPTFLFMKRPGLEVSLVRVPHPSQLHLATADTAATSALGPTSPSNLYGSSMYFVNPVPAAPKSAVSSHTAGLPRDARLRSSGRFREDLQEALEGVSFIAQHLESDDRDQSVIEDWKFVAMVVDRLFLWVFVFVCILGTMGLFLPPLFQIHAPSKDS
- recorded conditions: read-out: α3β4 IC50
parameter: pIC50
When answering, recall that pIC50 equals minus log10 of the concentration in mol/L, and write that number alone.

Per the records, this compound ( CN(C)c1ccc2c(c1)CC1CC(Cc3ccccc3)N(C)C21 (stereo not shown) ) has pIC50 equal to 4.54

====

- system name: human α4β2 neuronal nAChRs (Homo sapiens, UniProt P17787+P43681)
- Sequence (P43681 29-627 limits assumed): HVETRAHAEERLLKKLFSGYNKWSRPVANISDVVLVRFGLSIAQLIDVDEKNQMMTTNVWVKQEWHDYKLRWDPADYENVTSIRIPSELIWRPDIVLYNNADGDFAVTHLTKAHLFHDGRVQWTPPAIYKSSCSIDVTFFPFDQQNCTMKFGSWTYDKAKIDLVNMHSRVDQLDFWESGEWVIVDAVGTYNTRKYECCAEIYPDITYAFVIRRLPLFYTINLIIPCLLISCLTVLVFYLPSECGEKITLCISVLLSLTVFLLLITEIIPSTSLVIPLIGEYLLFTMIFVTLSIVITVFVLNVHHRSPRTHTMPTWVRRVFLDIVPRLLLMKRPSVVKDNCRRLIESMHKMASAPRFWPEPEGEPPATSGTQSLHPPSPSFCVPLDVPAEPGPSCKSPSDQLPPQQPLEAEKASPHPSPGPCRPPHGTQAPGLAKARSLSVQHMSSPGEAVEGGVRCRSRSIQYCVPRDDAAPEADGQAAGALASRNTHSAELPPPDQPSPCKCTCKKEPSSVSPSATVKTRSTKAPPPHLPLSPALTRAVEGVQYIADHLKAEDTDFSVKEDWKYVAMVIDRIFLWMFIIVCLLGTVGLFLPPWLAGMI
- Sequence (P17787 26-502): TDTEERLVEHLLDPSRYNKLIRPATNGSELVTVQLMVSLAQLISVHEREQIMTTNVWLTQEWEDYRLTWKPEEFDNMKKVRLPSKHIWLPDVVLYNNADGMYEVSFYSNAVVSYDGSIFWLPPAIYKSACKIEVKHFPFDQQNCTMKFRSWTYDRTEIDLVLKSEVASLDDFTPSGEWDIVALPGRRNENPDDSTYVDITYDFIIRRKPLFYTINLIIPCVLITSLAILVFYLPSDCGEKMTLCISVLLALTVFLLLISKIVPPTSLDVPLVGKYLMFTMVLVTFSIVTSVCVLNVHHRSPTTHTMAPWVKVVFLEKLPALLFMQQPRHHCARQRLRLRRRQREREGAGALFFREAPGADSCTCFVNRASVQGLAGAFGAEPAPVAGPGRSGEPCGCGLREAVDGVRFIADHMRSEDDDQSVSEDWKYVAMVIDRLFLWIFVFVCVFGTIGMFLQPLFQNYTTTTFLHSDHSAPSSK
- recorded conditions: α4β2 IC50
parameter: IC50
Param answer (str): number followed by unit.

Per the records, this compound ( c1ccc(C2(N3CCCCC3)CCCCC2)cc1 [PCP, phencyclidine, reference compound] ) has IC50 equal to 29 µM

====

- system name: human α4β2 neuronal nAChRs (Homo sapiens, UniProt P17787+P43681)
- recorded conditions: read-out: α4β2 IC50
parameter: IC50 (µM)
Form entry: value (µM) — number only.

Sample CN(C)c1ccc2c(c1)CC1CC(Cc3ccccc3)N(C)C21 (stereo not shown) , system: human α4β2 neuronal nAChRs (Homo sapiens, UniProt P17787+P43681). Its IC50 is 25.1

====

pKi: −log10 of the molar value.
parameter: pKi

Sample CN(C)c1ccc2c(c1)CC1CC(Cc3ccccc3)N(C)C21 (stereo not shown) [HDMP] , system: α7 nAChRs (Rattus norvegicus). Its pKi is < 5.00
